Just for reference, the NIST ThermoML archive (doi:10.1016/j.jct.2015.09.002) is where these values come from.

# Measurement setup: 293.15 K; 93.2 kPa; Liquid; Vibrating tube method
Experimental endpoint: mass density (kg/m3)

[
  {
    "Compound": "CCCCNCCCC [dibutylamine]",
    "mass density / kg/m3": 759.7
  },
  {
    "Compound": "CC#N [acetonitrile]",
    "mass density / kg/m3": 782.01
  },
  {
    "Compound": "CCCNCCC [dipropylamine]",
    "mass density / kg/m3": 738.18
  },
  {
    "Compound": "CCCCN [1-butanamine]",
    "mass density / kg/m3": 737.12
  },
  {
    "Compound": "CC(C)(C)N [2-methyl-2-propanamine]",
    "mass density / kg/m3": 692.06
  },
  {
    "Compound": "CCN(CC)CC [triethylamine]",
    "mass density / kg/m3": 727.7
  },
  {
    "Compound": "CCCN [propan-1-amine]",
    "mass density / kg/m3": 716.48
  }
]

---

# Measurement setup: 303.15 K; 93.2 kPa; Liquid; Vibrating tube method
Experimental endpoint: mass density (kg/m3)

[
  {
    "Structure notation": "CCCN",
    "Reading unit": "kg/m3",
    "mass density": 705.88
  },
  {
    "Structure notation": "CCN(CC)CC",
    "Reading unit": "kg/m3",
    "mass density": 718.36
  },
  {
    "Structure notation": "CCCNCCC",
    "Reading unit": "kg/m3",
    "mass density": 729.07
  },
  {
    "Structure notation": "CCCCNCCCC",
    "Reading unit": "kg/m3",
    "mass density": 751.5
  },
  {
    "Structure notation": "CC(C)(C)N",
    "Reading unit": "kg/m3",
    "mass density": 681.18
  },
  {
    "Structure notation": "CCCCN",
    "Reading unit": "kg/m3",
    "mass density": 727.51
  },
  {
    "Structure notation": "CC#N",
    "Reading unit": "kg/m3",
    "mass density": 771.2
  }
]
